Target: T1, cynomolgus CX3CR1 (cynomolgus, UniProt P49238 1-355 (human entry))
T1 construct: transiently expressed on HEK293T cells; also called cyCX3CR1; cyno CX3CR1
T1 chain: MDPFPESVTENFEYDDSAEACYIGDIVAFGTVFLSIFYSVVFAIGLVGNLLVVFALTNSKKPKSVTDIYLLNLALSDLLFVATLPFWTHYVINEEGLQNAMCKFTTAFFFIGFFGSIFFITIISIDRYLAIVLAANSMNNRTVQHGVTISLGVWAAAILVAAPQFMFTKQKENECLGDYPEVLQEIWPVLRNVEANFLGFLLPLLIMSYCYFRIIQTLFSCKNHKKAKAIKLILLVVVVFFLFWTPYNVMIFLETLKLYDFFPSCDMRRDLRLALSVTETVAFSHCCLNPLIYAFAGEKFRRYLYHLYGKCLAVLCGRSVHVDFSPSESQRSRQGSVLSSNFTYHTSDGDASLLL
Assay: A647-fractalkine competition FACS, HEK293T cynomolgus CX3CR1
Measured IC50 accompanies every entry in the list below.
In your response, put the unit directly after the numeric value.

Use the examples below as a reference point.
[[record]]
binder = "CX3CR1BII020 (VHH, expressed in E. coli as described for the monovalent VHHs) EVQLVESGGGSVQAGESLRLSCAASGSIFSSNAMAWYRQAPGKQRDLVAGINSVGITKYADSVKGRFTISRDNAKNTAYLQMNSLKPEDTAVYYCTSDPRRGWDTRYWGQGTLVTVSSGGGGSGGGGSGGGGSGGGGSGGGGSGGGGSGGGGSEVQLVESGGGSVQAGESLRLSCAASGSIFSSNAMAWYRQAPGKQRDLVAGINSVGITKYADSVKGRFTISRDNAKNTAYLQMNSLKPEDTAVYYCTSDPRRGWDTRYWGQGTLVTVSS"
readout_name = "IC50"
recorded_value = "0.32 nM"

[[record]]
binder = "CX3CR1BII017 (VHH, expressed in E. coli as described for the monovalent VHHs) EVQLVESGGGSVQAGESLRLSCAASGSIFSSNAMAWYRQAPPGKQRDLVALINSVGITKYADSVKGRFTISSDNAKNTVYLEMNSLKPEDTAVYYCTSDGRRGWDTRYWGQGTQVTVSSGGGGSGGGGSGGGGSGGGGSGGGGSGGGGSGGGGSEVQLVESGGGSVQAGESLRLSCAASGSIFSSNAMAWYRQAPPGKQRDLVALINSVGITKYADSVKGRFTISSDNAKNTVYLEMNSLKPEDTAVYYCTSDGRRGWDTRYWGQGTQVTVSS"
readout_name = "IC50"
recorded_value = "1.6 nM"


Asked: Recorded IC50 for CX3CR1BII016 (VHH, expressed in E. coli as described for the monovalent VHHs) EVQLVESGGGSVQAGESLRLSCAASGSIFSSNAMAWYRQAPGKQRDLVAVINSVGITKYADSVKGRFTISGDNAKNTVYLQMNSLKPEDTAVYYCTSDARRGWDTRYWGQGTQVTVSSGGGGSGGGGSGGGGSGGGGSGGGGSGGGGSGGGGSEVQLVESGGGSVQAGESLRLSCAASGSIFSSNAMAWYRQAPGKQRDLVAVINSVGITKYADSVKGRFTISGDNAKNTVYLQMNSLKPEDTAVYYCTSDARRGWDTRYWGQGTQVTVSS , please?
Given back: 0.69 nM

Reference source: patent US20130224224A1
